- Assayed target: ATP-binding cassette transporter A1 (ABCA1) (UniProt P41233 1-2261, limits assumed)
- Sequence (P41233 whole entry): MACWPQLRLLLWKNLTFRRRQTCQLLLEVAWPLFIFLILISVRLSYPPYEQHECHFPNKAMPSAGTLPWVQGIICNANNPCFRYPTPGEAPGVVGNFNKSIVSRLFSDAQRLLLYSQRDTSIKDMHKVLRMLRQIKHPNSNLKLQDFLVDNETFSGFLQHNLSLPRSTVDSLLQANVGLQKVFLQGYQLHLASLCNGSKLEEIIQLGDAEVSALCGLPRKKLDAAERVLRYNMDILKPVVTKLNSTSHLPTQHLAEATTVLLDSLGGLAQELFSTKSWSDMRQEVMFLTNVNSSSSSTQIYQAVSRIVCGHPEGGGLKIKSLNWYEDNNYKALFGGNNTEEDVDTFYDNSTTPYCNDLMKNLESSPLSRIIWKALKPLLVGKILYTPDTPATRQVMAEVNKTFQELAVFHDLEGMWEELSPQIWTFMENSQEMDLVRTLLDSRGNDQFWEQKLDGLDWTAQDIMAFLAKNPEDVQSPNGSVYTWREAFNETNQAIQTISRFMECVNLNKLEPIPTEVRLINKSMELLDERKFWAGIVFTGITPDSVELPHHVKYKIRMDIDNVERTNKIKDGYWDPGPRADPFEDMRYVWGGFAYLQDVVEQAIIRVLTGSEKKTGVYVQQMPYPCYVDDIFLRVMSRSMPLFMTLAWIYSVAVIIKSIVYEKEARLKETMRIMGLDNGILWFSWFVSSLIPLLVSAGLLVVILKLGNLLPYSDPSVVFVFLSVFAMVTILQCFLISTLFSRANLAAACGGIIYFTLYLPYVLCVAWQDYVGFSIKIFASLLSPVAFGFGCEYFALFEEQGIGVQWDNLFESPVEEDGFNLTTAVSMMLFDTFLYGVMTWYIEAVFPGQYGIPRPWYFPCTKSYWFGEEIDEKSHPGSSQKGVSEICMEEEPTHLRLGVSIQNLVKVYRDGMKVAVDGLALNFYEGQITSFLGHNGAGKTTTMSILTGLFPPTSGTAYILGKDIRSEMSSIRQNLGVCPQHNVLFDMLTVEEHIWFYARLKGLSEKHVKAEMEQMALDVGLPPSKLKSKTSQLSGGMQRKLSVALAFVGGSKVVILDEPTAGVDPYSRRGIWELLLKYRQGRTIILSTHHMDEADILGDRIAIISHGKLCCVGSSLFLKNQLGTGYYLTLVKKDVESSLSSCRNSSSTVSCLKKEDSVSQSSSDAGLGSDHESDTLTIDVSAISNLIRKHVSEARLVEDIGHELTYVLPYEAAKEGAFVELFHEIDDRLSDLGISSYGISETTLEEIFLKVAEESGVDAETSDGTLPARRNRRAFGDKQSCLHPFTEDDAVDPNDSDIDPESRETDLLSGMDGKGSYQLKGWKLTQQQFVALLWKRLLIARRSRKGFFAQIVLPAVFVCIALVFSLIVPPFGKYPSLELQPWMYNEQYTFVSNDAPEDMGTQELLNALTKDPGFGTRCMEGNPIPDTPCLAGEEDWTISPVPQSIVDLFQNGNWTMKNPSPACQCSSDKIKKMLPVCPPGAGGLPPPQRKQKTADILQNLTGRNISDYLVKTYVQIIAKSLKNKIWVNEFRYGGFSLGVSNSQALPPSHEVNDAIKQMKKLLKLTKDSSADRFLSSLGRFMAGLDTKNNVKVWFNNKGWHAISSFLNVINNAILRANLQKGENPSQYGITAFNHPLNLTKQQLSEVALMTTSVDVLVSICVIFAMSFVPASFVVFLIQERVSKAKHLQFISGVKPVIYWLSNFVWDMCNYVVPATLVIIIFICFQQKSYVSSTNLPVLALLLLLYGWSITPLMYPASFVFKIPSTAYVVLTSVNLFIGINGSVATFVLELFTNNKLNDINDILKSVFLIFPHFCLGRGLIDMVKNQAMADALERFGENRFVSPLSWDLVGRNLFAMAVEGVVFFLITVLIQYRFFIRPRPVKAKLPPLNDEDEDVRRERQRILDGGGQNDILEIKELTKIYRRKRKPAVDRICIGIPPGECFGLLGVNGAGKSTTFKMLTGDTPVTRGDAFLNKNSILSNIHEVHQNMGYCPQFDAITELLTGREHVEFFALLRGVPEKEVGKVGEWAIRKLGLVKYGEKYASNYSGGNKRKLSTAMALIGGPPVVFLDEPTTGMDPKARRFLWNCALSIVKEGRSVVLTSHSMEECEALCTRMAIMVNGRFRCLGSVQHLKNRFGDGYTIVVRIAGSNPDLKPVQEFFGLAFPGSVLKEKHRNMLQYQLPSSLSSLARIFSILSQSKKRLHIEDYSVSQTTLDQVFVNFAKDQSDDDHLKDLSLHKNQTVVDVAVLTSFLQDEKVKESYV
- Measurement description: cell-based or functional assay
Outcome measure: % cholesterol efflux/4 hours at 3.0 µg/ml (%)

Would you please look over these solved cases?
| Binder | Unit spec | Measured number |
| --- | --- | --- |
| EVREKLEAWFELFREFAERFLS [N965-3] | % | 3.48 |
| EVREKLEAWFELFREFAERFKS [N965-2] | % | 2.23 |
| ELREKLEAWRELFEEFFARFLS [N965-9] | % | 2.45 |

a = EVREKLEAWFEAFREFAERFKS [N965-1]
b = ELREKLEAWFELFREFLERF [SEQ ID NO:2 peptide]
Input line: Hi! Which is lower in terms of % cholesterol efflux/4 hours at 3.0 µg/ml, the first one a or the second one b ? In your reply, give the label of the chosen option.
Output line: a
